viability, T/C listing for selected molecules.
- Tested on: 415267-285-R-J2-PDC complex spheroid viability;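 also: luminescence used as stand-in measure of viable cells; spheroids exposed to compounds for one week before readout; 100% = DMSO vehicle control viability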
- Test Method Notes: Anticancer human tumor 415267-285-R-J2-PDC patient-derived breast carcinoma cell line growth inhibition [POLQ]
- Condition: second compound 3.16 µM; first compound 10 µM; hits give low values
- Method: Multicellular complex tumor spheroid response to Polymerase (POL) inhibitors (novobiocin, ART-558, RP6685) in combination with a variety of drugs and investigational agents in selected tumor cell lines The POL inhibitors (novobiocin, ART-558, and RP6685) were evaluated both individually and in combination with standard of care and investigational anticancer small molecules within a complex spheroid model of solid tumors. . […]

Please review the entries below; each comes with its answer.
- CC(C)n1c(=O)n(C)c2cnc3cc(F)c(-c4ccc(OCCCN5CCCCC5)nc4)cc3c21 + Cc1cccc(N(C)C(=O)C2C(O)CCN2c2nc(C)cc(C(F)(F)F)c2C#N)c1: 81.9%
- C=CC(=O)N1CCN(c2nc(=O)n(-c3c(C)ccnc3C(C)C)c3nc(-c4c(O)cccc4F)c(F)cc23)C(C)C1 (centres undefined) + COC1C(OC(N)=O)C(O)C(Oc2ccc3c(O)c(NC(=O)c4ccc(O)c(CC=C(C)C)c4)c(=O)oc3c2C)OC1(C)C: 95.9%
- CCc1cc2c(N3CCc4c(cc(Cn5ccnc5)cc4-c4cn(C)nc4C(F)(F)F)C3=O)cc(C)nc2c(OC)n1 + Cc1cccc(N(C)C(=O)C2C(O)CCN2c2nc(C)cc(C(F)(F)F)c2C#N)c1: 87.9%

[ask] Look at this molecule and give its reported viability, T/C. Nc1ccn(C2OC(CO)C(O)C2(F)F)c(=O)n1 (centres undefined) + Nc1ccc(C#CCN(C(=O)Cc2ncc(C(F)(F)F)cc2C(F)(F)F)c2ccc(F)cc2)nn1
[reply] 5.11%

[ask] Look at this molecule and give its reported viability, T/C. O=c1[nH]cc(F)c(=O)[nH]1 + Cc1cccc(N(C)C(=O)C2C(O)CCN2c2nc(C)cc(C(F)(F)F)c2C#N)c1
[reply] 33.6%

[ask] Look at this molecule and give its reported viability, T/C. CCCS(=O)(=O)Nc1ccc(F)c(C(=O)c2c[nH]c3ncc(-c4ccc(Cl)cc4)cc23)c1F + Nc1ccc(C#CCN(C(=O)Cc2ncc(C(F)(F)F)cc2C(F)(F)F)c2ccc(F)cc2)nn1
[reply] 92.9%

[ask] Look at this molecule and give its reported viability, T/C. CC1COCCN1c1cc(C2(S(C)(=N)=O)CC2)nc(-c2ccnc3[nH]ccc23)n1 (centres undefined) + COC1C(OC(N)=O)C(O)C(Oc2ccc3c(O)c(NC(=O)c4ccc(O)c(CC=C(C)C)c4)c(=O)oc3c2C)OC1(C)C
[reply] 4.43%

[ask] Look at this molecule and give its reported viability, T/C. CC(C)n1c(=O)n(C)c2cnc3cc(F)c(-c4ccc(OCCCN5CCCCC5)nc4)cc3c21 + Nc1ccc(C#CCN(C(=O)Cc2ncc(C(F)(F)F)cc2C(F)(F)F)c2ccc(F)cc2)nn1
[reply] 115%

[ask] Look at this molecule and give its reported viability, T/C. CC1COCCN1c1cc(C2(O)CC3CCC(C2)O3)c2cnn(-c3ccn[nH]3)c2n1 (centres undefined) + COC1C(OC(N)=O)C(O)C(Oc2ccc3c(O)c(NC(=O)c4ccc(O)c(CC=C(C)C)c4)c(=O)oc3c2C)OC1(C)C
[reply] 4.43%

[ask] Look at this molecule and give its reported viability, T/C. O=C(Nc1ccc(O)c(NS(=O)(=O)c2ccc(F)cc2)c1)c1ccc(-c2ccccc2)cc1 + Nc1ccc(C#CCN(C(=O)Cc2ncc(C(F)(F)F)cc2C(F)(F)F)c2ccc(F)cc2)nn1
[reply] 75.7%

[ask] Look at this molecule and give its reported viability, T/C. CCc1cc2c(N3CCc4c(cc(Cn5ccnc5)cc4-c4cn(C)nc4C(F)(F)F)C3=O)ccnc2c(OC)n1 + Cc1cccc(N(C)C(=O)C2C(O)CCN2c2nc(C)cc(C(F)(F)F)c2C#N)c1
[reply] 85.4%

[ask] Look at this molecule and give its reported viability, T/C. CC1COCCN1c1cc(C2(O)CC3CCC(C2)O3)c2cnn(-c3ccn[nH]3)c2n1 (centres undefined) + Cc1cccc(N(C)C(=O)C2C(O)CCN2c2nc(C)cc(C(F)(F)F)c2C#N)c1
[reply] 4.56%

[ask] Look at this molecule and give its reported viability, T/C. COc1cc(C2c3cc4c(cc3C(OC3OC5COC(C)OC5C(O)C3O)C3COC(=O)C23)OCO4)cc(OC)c1O (centres undefined) + Cc1cccc(N(C)C(=O)C2C(O)CCN2c2nc(C)cc(C(F)(F)F)c2C#N)c1
[reply] 6.34%

[ask] Look at this molecule and give its reported viability, T/C. CCCS(=O)(=O)Nc1ccc(F)c(C(=O)c2c[nH]c3ncc(-c4ccc(Cl)cc4)cc23)c1F + COC1C(OC(N)=O)C(O)C(Oc2ccc3c(O)c(NC(=O)c4ccc(O)c(CC=C(C)C)c4)c(=O)oc3c2C)OC1(C)C
[reply] 60.5%
